experimental target: bovine thrombin (Bos taurus)
Construct: purchased Sigma-Aldrich (Milan, Italy)
method notes: biochemical
value type: pKi
In textbook form, pKi equals minus log to base ten of the concentration in mol/L.

Query: // fetch pKi given entry [H]/N=C(/N)c1ccc(NCc2nc3cc(C(=O)N(CCC(=O)O)c4ccccn4)ccc3n2C)cc1 [dabigatran, reference compound]
Response: 8.38

---

As shown below, each of these compounds has a reported log10 of Ki value.
experimental target: horse serum butyrylcholinesterase (eqBChE) (Equus caballus)
Construct: AChE (from electric eel) and BChE (from horse serum); from tissue; host or cells: horse serum
Sequence (P81908 whole entry): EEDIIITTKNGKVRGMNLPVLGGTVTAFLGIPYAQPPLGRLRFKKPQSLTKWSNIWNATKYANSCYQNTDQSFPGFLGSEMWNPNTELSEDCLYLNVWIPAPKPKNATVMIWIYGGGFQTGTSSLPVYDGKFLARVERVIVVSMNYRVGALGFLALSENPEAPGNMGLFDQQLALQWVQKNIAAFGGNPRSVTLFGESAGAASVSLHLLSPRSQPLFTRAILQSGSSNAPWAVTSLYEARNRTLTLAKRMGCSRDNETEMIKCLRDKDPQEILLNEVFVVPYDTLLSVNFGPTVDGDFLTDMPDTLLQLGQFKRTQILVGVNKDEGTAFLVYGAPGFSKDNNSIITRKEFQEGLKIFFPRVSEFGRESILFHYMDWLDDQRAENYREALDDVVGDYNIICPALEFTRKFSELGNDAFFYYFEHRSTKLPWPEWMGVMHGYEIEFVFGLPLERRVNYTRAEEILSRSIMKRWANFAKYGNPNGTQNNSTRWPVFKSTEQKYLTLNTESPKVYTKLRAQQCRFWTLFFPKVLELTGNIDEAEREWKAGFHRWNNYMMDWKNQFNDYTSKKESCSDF
method notes: biochemical
conditions: horse serum BChE; Cheng–Prousoff from IC50; read-out: Ki BChE
// stored as log10 of Ki expressed in nM

CC(C)N1CCC(C(=O)Nc2cccc(OCc3ccc(F)cc3)c2)CC1 [Compound 14]	2.11
O=C(Nc1ccccc1OCc1ccc(F)cc1)C1CCN(C2CCCC2)CC1 [Compound 19]	2.33
O=C(Nc1cccc(OCCc2cccc(F)c2)c1)C1CCN(c2ccncc2)CC1 [Compound 6]	3.24
O=C(Nc1cccc(OCc2ccc(F)cc2)c1)C1CCN(C2CCCC2)CC1 [Compound 15]	2.06

Could you now consider this next compound?
Query: Supply measured log10 of Ki of N=C(N)N1CCC(C(=O)Nc2ccccc2OCc2cc(-c3ccc(Cl)cc3)on2)CC1 [Compound 27] in your reply.
Response: 4.00
